- SYSTEM NAME: Pantothenate kinase, putative (Plasmodium falciparum (isolate 3D7)) (UniProt Q8ILP4)
- Sequence (Q8ILP4 as listed by the source): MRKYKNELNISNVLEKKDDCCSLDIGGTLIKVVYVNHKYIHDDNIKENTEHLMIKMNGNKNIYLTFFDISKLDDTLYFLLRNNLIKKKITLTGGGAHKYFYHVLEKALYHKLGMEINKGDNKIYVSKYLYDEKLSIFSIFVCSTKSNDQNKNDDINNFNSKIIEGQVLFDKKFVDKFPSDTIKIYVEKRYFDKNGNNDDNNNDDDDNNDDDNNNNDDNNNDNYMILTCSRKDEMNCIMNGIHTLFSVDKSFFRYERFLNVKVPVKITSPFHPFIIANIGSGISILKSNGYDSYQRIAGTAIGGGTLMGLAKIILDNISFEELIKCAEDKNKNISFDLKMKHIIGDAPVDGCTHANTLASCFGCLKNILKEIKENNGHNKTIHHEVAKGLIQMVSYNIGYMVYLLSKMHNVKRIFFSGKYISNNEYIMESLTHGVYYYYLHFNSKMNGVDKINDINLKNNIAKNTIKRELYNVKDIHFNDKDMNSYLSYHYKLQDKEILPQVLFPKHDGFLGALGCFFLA
- ASSAY PROCEDURE: Inhibition of pantothenate kinase in Plasmodium falciparum 3D7 trophozoites at 100 uM using [14C]pantothenate as substrate after 15 to 60 mins by TopCount scintillation counting method relative to control
# inhibition listing for each entry below

Solved entries (count: 2):
[
  {
    "COMPOUND STRUCTURE STRING": "CC(C)(C)OC(=O)/C=C/NC(=O)[C@H](O)C(C)(C)CO",
    "inhibition": "> 90%"
  },
  {
    "COMPOUND STRUCTURE STRING": "CC(C)(CO)[C@H](O)C(=O)N/C=C/C(=O)OCc1ccccc1",
    "inhibition": "< 25%"
  }
]

Okay, now this compound:
# lookup: `CC(C)(C)OC(=O)/C=C/NC(=O)[C@@H](O)C(C)(C)CO` on Pantothenate kinase, putative (Plasmodium falciparum (isolate 3D7)) (UniProt Q8ILP4), inhibition = < 25%

From: ChEMBL document CHEMBL4138249
